Reference for the values: the supplement of paper PMC6555819

system: PPARg:RXRa 270nM:90nM, anti-RXR (NR concentration 270 nM, RXRa partner concentration 90 nM); assay: PBM binding z-score (relative to random genomic background probes); higher = stronger binding; sequences stand for … in GC…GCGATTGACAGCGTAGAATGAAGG
Recorded PBM binding z-score for the following sequences
readout: PBM binding z-score

- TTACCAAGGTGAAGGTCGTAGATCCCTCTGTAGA: 3.86
- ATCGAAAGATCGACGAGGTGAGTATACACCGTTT: -0.253
- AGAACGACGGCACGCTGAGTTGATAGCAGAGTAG: -0.503
- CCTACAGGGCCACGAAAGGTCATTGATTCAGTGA: 3.15
- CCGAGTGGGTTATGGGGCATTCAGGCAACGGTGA: 3.77
- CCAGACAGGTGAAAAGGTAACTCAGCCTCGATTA: 2.24
- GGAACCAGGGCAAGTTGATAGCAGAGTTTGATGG: 0.853
- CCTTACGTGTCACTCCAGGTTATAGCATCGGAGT: 0.288
- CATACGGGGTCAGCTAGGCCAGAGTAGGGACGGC: 6.63
- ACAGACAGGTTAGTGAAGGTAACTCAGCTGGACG: 0.049
- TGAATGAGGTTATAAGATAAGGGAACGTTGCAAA: 1.62
- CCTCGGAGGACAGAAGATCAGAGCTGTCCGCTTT: -0.214
- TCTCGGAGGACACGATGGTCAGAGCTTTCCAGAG: 0.7
- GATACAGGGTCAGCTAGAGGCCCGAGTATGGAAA: 3.1
- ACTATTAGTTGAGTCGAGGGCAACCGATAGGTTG: 0.452
- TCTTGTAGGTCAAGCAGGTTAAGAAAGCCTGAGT: 6.59
- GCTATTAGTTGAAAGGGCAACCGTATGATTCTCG: 4.69
- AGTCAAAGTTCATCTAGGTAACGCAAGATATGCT: 6.35
- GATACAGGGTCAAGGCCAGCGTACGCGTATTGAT: 5.32
- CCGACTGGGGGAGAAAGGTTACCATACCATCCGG: 6.01
- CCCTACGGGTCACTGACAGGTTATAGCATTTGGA: 3.77
- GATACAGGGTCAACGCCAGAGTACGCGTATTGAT: 5.78
- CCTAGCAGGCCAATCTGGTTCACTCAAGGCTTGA: -0.488
- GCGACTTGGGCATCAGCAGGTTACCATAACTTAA: -0.529
- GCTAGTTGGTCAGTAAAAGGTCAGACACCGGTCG: 3.25
- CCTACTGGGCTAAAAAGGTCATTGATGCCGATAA: 3.6
- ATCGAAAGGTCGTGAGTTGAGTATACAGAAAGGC: 3.9
- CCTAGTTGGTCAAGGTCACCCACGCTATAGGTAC: 3.43
- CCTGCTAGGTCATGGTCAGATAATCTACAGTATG: 2.71
- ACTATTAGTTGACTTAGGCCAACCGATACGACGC: 0.478
- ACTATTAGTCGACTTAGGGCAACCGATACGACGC: 0.138
- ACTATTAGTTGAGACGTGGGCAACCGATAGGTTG: -0.3
- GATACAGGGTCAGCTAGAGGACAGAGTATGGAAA: 3.23
- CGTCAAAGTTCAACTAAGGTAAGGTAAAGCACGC: 5.34
- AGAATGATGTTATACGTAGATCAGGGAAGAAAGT: -0.156
- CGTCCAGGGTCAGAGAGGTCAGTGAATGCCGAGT: 4.21
- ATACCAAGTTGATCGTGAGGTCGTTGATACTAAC: 0.229
- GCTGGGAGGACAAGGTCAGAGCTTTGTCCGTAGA: 1.28
- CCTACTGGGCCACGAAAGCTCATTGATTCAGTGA: 1.15
- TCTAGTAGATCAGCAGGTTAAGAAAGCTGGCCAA: 1.37
- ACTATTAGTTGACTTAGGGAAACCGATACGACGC: 0.171
- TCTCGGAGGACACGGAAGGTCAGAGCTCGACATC: 1.4
